Tested on: DLD-1 colon
Method: NCI tumour cell line growth inhibition, 48 h
Property measured: TGI

Recorded TGI (compound COC(C(=O)[O][Ge]([CH3])([CH3])[CH3])c1ccccc1 (stereo not drawn) ): > 100 µM

Recorded TGI (compound C=CCC[CH2][Sn]([c]1ccccc1)([c]1ccccc1)[c]1ccccc1 ): 2.98 µM

Recorded TGI (compound C=CC/C=C/Cc1csc(C(C)(C)C(O)C/C=C/C(=C)CCNC(=O)OC)n1 (stereo not drawn) ): > 100 µM

* * *

Can you tell me TGI for the items I'm about to list?
System: M14 melanoma
Method: NCI tumour cell line growth inhibition, 48 h

Recorded TGI (molecule Cc1ccc(C2=Nc3cccc4cccc(c34)N2)cc1 ): > 100 µM

Recorded TGI (molecule COc1ccc2nc(-c3cccs3)cc(C(O)CN3CCSCC3)c2c1 (stereo unspecified) ): 40.6 µM

Recorded TGI (molecule COc1ccc(/C=C2\NC(=S)N(CN3CCCCC3)C2=O)cc1 ): > 100 µM

Recorded TGI (molecule CS(=O)(=O)N1CC(CCl)c2ccc([N+](=O)[O-])cc21 (stereo unspecified) ): > 100 µM

Recorded TGI (molecule O=c1c2nn3c(=O)n(-c4ccccc4)c(=O)c3nn2c(=O)n1-c1ccccc1 ): > 100 µM

Recorded TGI (molecule CN(C)CCNc1c2c(c(NCCN(C)C)c3[nH]ccc13)C(=O)c1ccccc1C2=O ): 29.9 µM

Recorded TGI (molecule OC(c1cc(-c2ccccc2)nc2ccc(Cl)cc12)C1CCCCN1 (stereo unspecified) ): 3.54 µM

Recorded TGI (molecule [N-]=[N+]=Nc1c(C=O)c(=O)n2c3c(cccc13)CCC2 ): 3.9 µM

Recorded TGI (molecule CC(NNC(=O)c1ccncc1)c1ccc(F)cc1 (stereo unspecified) ): > 100 µM

Recorded TGI (molecule CC(=O)Nc1cc([As](=O)(O)O)ccc1O ): > 100 µM

Recorded TGI (molecule CCOC(=O)CSc1nc(N)c2c(-c3ccc(OC)c(OC)c3)c3c(nc2n1)CCCC3 ): > 100 µM

* * *

System: MALME-3M melanoma
Method: NCI tumour cell line growth inhibition, 48 h; in the data active means GI50 below about 0.43 µM; inactive means the rest
Please reply with one of these outcomes: yes (1) = active, no (0) = inactive

Q. Recorded call for NCCn1c(=O)[nH]c(=O)[nH]c1=S ?
A. no (0)

Q. Recorded call for COC(=O)[C@@]1(C)CC[C@]2(C)CC[C@]3(C)C4=CC=C5C(=CC(=O)C(O)=C5C)[C@]4(C)[C@@H](O)C[C@@]3(C)[C@@H]2C1 ?
A. no (0)

Q. Recorded call for Cn1cccc1-c1cc(-c2cccs2)nc(N)c1C#N ?
A. no (0)

Q. Recorded call for COc1ccc2nc(-c3ccc(-c4noc(-c5cc(OC)c(OC)c(OC)c5)n4)cc3)[nH]c2c1 ?
A. no (0)

Q. Recorded call for COc1ccc(/C(=C2/O[C@@H]([C@H]3COC(C)(C)O3)[C@H]3OC(C)(C)O[C@@H]23)c2cc(OC)c(OC)c(OC)c2)cc1O ?
A. no (0)

Q. Recorded call for CCc1nccc2c1nc(-c1nonc1N)n2CC ?
A. no (0)

Q. Recorded call for C1C[OH+]CC[OH+]CCNCC[OH+]CC[OH+]CCN1.N.[Cl-].[Pt+4] ?
A. no (0)

Q. Recorded call for COc1ccc(-c2nc3sc4c(c3c(=O)[nH]2)CCCCCC4)cc1 ?
A. no (0)

Q. Recorded call for Oc1cccc2ccc(N/N=C/c3cc(CN4CCCCC4)c(O)c4ncccc34)nc12 ?
A. yes (1)

* * *

Tested on: MDA-MB-435
Method: NCI tumour cell line growth inhibition, 48 h
Property measured: log10(TGI) (log10 of the value in µM)
Use the decimal logarithm of TGI (µM).

Recorded log10(TGI) (compound CCCCCCCCCCCCCCCCN1CC2CCCCC2C1 (stereo not given) ): 1.39

Recorded log10(TGI) (compound Oc1cccc2ccc(N/N=C/c3cc(CN4CCCCC4)c(O)c4ncccc34)nc12 ): 0.24

Recorded log10(TGI) (compound O=C(/C=C/c1ccccc1)CCN1CCN(CCC(=O)/C=C/c2ccccc2)CC1 ): 1.17

Recorded log10(TGI) (compound Cc1cc(N(CCCl)CCCl)ccc1C=Nc1ccc(-c2csc(Cc3ccccc3)n2)cc1 ): 1.60

Recorded log10(TGI) (compound Cc1ccccc1[P+](Cc1ccccc1)(c1ccccc1)c1ccccc1 ): 0.57

Recorded log10(TGI) (compound OC(c1cc(-c2ccccc2)nc2ccc(Cl)cc12)C1CCCCN1 (stereo not given) ): 0.52

Recorded log10(TGI) (compound Cn1cc(-c2ccc3occ(-c4cccc(-c5ccncc5)c4)c3n2)cn1 ): -0.28

Recorded log10(TGI) (compound COc1ccc(-c2ccc(/C=N/n3c(COc4ccc(Cl)cc4Cl)nn(CN4CCOCC4)c3=S)o2)c([N+](=O)[O-])c1 ): 1.71

Recorded log10(TGI) (compound Nc1ccccc1C#C/C=C\C#Cc1cccs1 ): 1.09

Recorded log10(TGI) (compound COc1ccc2c(c1)cn1c3ccc(O)cc3nc(N)c21 ): -1.13

Recorded log10(TGI) (compound CN(C)CC(=O)Nc1ccc(Cn2nnc3c2C(=O)c2nnn(Cc4ccc(NC(=O)CN(C)C)cc4)c2C3=O)cc1 ): -0.70

Recorded log10(TGI) (compound CCCC(C)c1cc(Cc2cc(Cl)cc(Cl)c2O)c(O)c(Cc2cc(Cl)cc(Cl)c2O)c1 (stereo not given) ): 1.01

Recorded log10(TGI) (compound CCOC(=O)C1(C(=O)OCC)Nc2cccnc2N(C)N1 ): 1.56

Recorded log10(TGI) (compound O=C(CCCCCCC(=O)Nc1ccc(N(CCCl)CCCl)cc1)NO ): 1.08

Recorded log10(TGI) (compound NC(=O)c1cc2cc(Cl)cc(Cl)c2oc1=Nc1ccc(F)cc1 ): 1.65

Recorded log10(TGI) (compound Cc1ccc(-c2cn3ccnc3c(-c3ccc(Cl)cc3)n2)cc1 ): -0.73

* * *

System: A498 renal
Method: NCI tumour cell line growth inhibition, 48 h; in the data active = GI50 below about 0.43 µM; inactive = the rest
Please reply with one of these outcomes: active, inactive

Q. Recorded call for Oc1cccc2ccc(N/N=C/c3cc(CN4CCCCC4)c(O)c4ncccc34)nc12 ?
A. inactive

Q. Recorded call for CC#C[C@]1(O)CC[C@H]2[C@@H]3CCC4=CC(=O)CCC4=C3[C@@H](c3ccc4c(c3)OCO4)C[C@@]21C ?
A. inactive

Q. Recorded call for COc1cccc(-n2ncc3c(N/N=C/c4ccc(C(=O)NCCN(C)C)cc4)ncnc32)c1 ?
A. inactive

Q. Recorded call for O=C1c2cccnc2C(=O)c2nc3cc(N4CCN(C5CC5)CC4)ccc3nc21 ?
A. inactive

Q. Recorded call for COC(C(=O)[O][Ge]([CH3])([CH3])[CH3])c1ccccc1 (stereo not given) ?
A. inactive

Q. Recorded call for O=C(CCCCCCC(=O)Nc1ccc(N(CCCl)CCCl)cc1)NO ?
A. inactive

Q. Recorded call for NCCOCCOCCNc1nc(Cc2ccccc2)nc(NCCCN2CCCC2=O)n1 ?
A. inactive

Q. Recorded call for COc1ccc2c(c1)/C(=C\c1c(C)nc3sccn13)C(=O)N2 ?
A. active

Q. Recorded call for C1C[OH+]CC[OH+]CCNCC[OH+]CC[OH+]CCN1.N.[Cl-].[Pt+4] ?
A. inactive

Q. Recorded call for CCCC(C)c1cc(Cc2cc(Cl)cc(Cl)c2O)c(O)c(Cc2cc(Cl)cc(Cl)c2O)c1 (stereo not given) ?
A. active

* * *

Tested on: HCC-2998 colon
Method: NCI tumour cell line growth inhibition, 48 h; in the data active = GI50 below about 0.43 µM; inactive = the rest
Please reply with one of these outcomes: 1 (yes) for active, 0 (no) for inactive

Q. Recorded call for COC(C(=O)[O][Ge]([CH3])([CH3])[CH3])c1ccccc1 (configuration not stated) ?
A. 0 (no)

Q. Recorded call for COC(=O)[C@@]1(C)CC[C@]2(C)CC[C@]3(C)C4=CC=C5C(=CC(=O)C(O)=C5C)[C@]4(C)[C@@H](O)C[C@@]3(C)[C@@H]2C1 ?
A. 0 (no)

Q. Recorded call for COc1ccc(/C=C2\CCCC3=C2N=C2SC(C)=NN2C3c2ccc(OC)c(OC)c2)cc1OC (configuration not stated) ?
A. 0 (no)

Q. Recorded call for COc1ccc(-c2ccc(/C=N/n3c(COc4ccc(Cl)cc4Cl)nn(CN4CCOCC4)c3=S)o2)c([N+](=O)[O-])c1 ?
A. 0 (no)

Q. Recorded call for COc1ccc(-c2nc3sc4c(c3c(=O)[nH]2)CCCCCC4)cc1 ?
A. 0 (no)

Q. Recorded call for Nc1nc2c(c3ncncc13)C(c1cccc(C(F)(F)F)c1)Cc1ncncc1-2 (configuration not stated) ?
A. 0 (no)

Q. Recorded call for CC(C)c1cc(-c2n[nH]c(=O)n2-c2ccc3c(ccn3C)c2)c(O)cc1O ?
A. 1 (yes)

* * *

Test system: 786-0 renal
Method: NCI tumour cell line growth inhibition, 48 h
Property measured: TGI

Recorded TGI (compound O=Nc1c(O)cc(Nc2ccc(Br)cc2)c2ccccc12 ): 27.3 µM

Recorded TGI (compound CCCC1(NC(=O)C(F)(F)F)CC(OC)OC2COC(c3ccccc3)OC21 (centres undefined) ): > 100 µM

Recorded TGI (compound CC(C)c1cc(-c2n[nH]c(=O)n2-c2ccc3c(ccn3C)c2)c(O)cc1O ): 45.4 µM

Recorded TGI (compound C[C@@H]1C[C@H]2CC[C@H](O2)[C@H](C)C(=O)O[C@@H](C)C[C@@H]2CC[C@@H](O2)[C@@H](C)C(=O)O[C@H](C)C[C@H]2CC[C@H](O2)[C@H](C)C(=O)O[C@@H](C)C[C@@H]2CC[C@@H](O2)[C@@H](C)C(=O)O1 ): 41.8 µM
